# test-system: T1, recombinant human ASM protein (human, UniProt P17405 47-630)
# T1 construct: Recombinant human ASM in solution; also called acid sphingomyelinase (ASM) protein
# T1 sequence: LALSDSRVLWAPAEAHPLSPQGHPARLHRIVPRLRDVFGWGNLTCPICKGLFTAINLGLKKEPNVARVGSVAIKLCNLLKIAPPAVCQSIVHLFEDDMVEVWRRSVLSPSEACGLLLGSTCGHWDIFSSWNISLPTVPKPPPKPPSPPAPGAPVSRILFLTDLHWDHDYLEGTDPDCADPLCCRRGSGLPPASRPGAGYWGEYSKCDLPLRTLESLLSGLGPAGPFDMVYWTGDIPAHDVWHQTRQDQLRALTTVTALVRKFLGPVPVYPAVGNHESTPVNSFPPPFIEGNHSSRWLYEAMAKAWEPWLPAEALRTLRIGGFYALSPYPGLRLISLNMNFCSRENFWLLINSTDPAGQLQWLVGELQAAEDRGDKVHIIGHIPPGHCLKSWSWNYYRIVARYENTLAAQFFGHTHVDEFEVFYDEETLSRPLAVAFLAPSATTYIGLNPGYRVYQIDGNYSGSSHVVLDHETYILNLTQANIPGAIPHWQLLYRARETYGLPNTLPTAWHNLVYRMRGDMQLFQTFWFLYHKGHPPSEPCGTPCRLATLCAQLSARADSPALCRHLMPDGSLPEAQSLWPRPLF
# experiment-description: BLI (Octet), antibody on AHC sensor
reported-metric: Kd (nM)
Quick note: give the figure in nM, leave out the unit.

Example binders with recorded Kd:
query: Which value of Kd has been reported for #9104v-L20 (antibody, human IgG4 S228P, lambda, V domains shown, Full-length IgG, lambda) VH: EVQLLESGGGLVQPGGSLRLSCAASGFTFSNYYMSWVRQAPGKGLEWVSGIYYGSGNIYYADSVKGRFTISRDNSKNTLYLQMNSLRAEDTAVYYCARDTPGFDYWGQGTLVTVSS VL: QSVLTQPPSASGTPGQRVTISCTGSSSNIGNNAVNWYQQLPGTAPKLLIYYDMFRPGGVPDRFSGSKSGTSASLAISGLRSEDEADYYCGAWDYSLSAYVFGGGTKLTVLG in the records?
result: 0.658

query: Which value of Kd has been reported for #9104v-L27 (antibody, human IgG4 S228P, lambda, V domains shown, Full-length IgG, lambda) VH: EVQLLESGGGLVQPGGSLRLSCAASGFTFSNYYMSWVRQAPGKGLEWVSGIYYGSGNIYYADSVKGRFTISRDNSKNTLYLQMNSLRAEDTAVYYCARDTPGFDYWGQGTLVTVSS VL: QSVLTQPPSASGTPGQRVTISCTGSSSNIGNNAVNWYQQLPGTAPKLLIYYDSFRQSGVPDRFSGSKSGTSASLAISGLRSEDEADYYCGAWDYSLSAYVFGGGTKLTVLG in the records?
result: 1.02

Others:
query: Which value of Kd has been reported for #9104v-L11 (antibody, human IgG4 S228P, lambda, V domains shown, Full-length IgG, lambda) VH: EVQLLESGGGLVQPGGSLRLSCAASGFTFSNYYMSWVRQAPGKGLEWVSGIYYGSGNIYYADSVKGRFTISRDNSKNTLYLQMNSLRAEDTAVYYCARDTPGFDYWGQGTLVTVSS VL: QSVLTQPPSASGTPGQRVTISCTGSSSNIGNNAVNWYQQLPGTAPKLLIYYDIFQPSGVPDRFSGSKSGTSASLAISGLRSEDEADYYCGAWDYSLSAYVFGGGTKLTVLG in the records?
result: 0.768

query: Which value of Kd has been reported for #9104 (antibody, V domains shown, Parental antibody; also called antibody #9104) VH: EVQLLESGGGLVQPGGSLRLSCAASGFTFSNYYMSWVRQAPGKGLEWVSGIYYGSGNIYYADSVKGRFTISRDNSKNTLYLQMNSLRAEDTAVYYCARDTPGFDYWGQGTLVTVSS VL: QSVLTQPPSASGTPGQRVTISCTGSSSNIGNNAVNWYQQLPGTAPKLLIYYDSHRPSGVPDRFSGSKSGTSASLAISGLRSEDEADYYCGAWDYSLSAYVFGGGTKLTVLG in the records?
result: 2.25

query: Which value of Kd has been reported for #9104v-L65 (antibody, human IgG4 S228P, lambda, V domains shown, Full-length IgG, lambda) VH: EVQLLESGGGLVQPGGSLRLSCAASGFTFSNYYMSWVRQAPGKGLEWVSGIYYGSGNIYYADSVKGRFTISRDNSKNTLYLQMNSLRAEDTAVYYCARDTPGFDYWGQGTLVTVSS VL: QSVLTQPPSASGTPGQRVTISCTGSSSNIGNNAVNWYQQLPGTAPKLLIYYDYYQSSGVPDRFSGSKSGTSASLAISGLRSEDEADYYCGAWDYSLSAYVFGGGTKLTVLG in the records?
result: 0.532
